Tested on: omalizumab
Assay: Diffusion interaction parameter kD of omalizumab by DLS (Example 62)
Conditions: Table 62A series; omalizumab 10 to 0.6 mg/mL, 0.1M excipient, His HCl pH 6.0, 25° C.
RESULT TYPE: kD (mL/g)

1. O=C(O)c1cccc(O)n1 [6-hydroxypyridine-2-carboxylic acid]: -31.9
2. CN1CCN(C)C1=O: -30.9
3. NCCCN: -11.3
4. O=C(O)/C=C/c1ccc(O)c(O)c1: -33.9
5. O=S(=O)(O)c1cccc2c(S(=O)(=O)O)cccc12: -25.1

* * *

Tested on: omalizumab
Test: DLS viscosity of concentrated omalizumab (Example 54)
Type: physicochemical
Conditions: concentrated omalizumab 9 parts : 1 part excipient stock (1 M or solubility limit), 20 mM HisHCl pH 6
Residues, ends and D or L forms follow the SMILES beside them.
RESULT TYPE: DLS Viscosity, Replicate 2 (cP)

1. CCCCn1ccnc1: 74.0
2. CCc1ncc[nH]1: 71.8
3. NCC(=O)NCC(=O)NCC(=O)NCC(=O)O [Tetraglycine] (H-GGGG-OH): 72.2
4. CN[C@@H]1[C@H](O)[C@H](NC)[C@H]2O[C@@]3(O)C(=O)C[C@@H](C)O[C@H]3O[C@@H]2[C@H]1O: 33.9
5. CC[N+](CC)(CC)CC.Cl [Tetraethylammonium HCl]: 58.3

(A) Cc1ncc[nH]1
(B) Cn1ccnc1
(C) CCCCCCn1ccnc1
Your job: order these 3 records by DLS Viscosity, Replicate 2, ascending. Answer format: the labels, ordered as requested.
C, B, A
(C: 33.1 cP, B: 54.8 cP, A: 81.3 cP)

These entries and their values trace back to patent US20250186600A1.
